test system: CYPSE Flatsedge; test: Postemergence weed control, flooded paddy (Table IV); type: in vivo, Cyperus serotinus; design: scale not given here; conditions: 0.2500 kg/ha

compound	herbicidal effect rating
COC(=O)C(C)Oc1cc(C)ccc1-c1nsc2ccc(-n3c(=O)cc(C(F)(F)F)n(C)c3=O)cc12 (stereo not shown) [Compound 9]	7.0
C#CCOC(=O)C(C)(C)Oc1ccc(C)cc1-c1nsc2ccc(-n3c(=O)cc(C(F)(F)F)n(C)c3=O)cc12 [Compound 528]	9.0
CCC(C#N)(CC)c1nsc2ccc(-n3c(=O)cc(C(F)(F)F)n(C)c3=O)cc12 [Compound 445]	4.0
CCc1ccc(-c2nsc3ccc(-n4c(=O)cc(C(F)(F)F)n(C)c4=O)cc23)cc1 [Compound 5]	0.0
COc1cc(C)c(I)cc1-c1nsc2ccc(-n3c(=O)cc(C(F)(F)F)n(C)c3=O)cc12 [Compound 429]	0.0
COc1ccc(I)cc1-c1nsc2ccc(-n3c(=O)cc(C(F)(F)F)n(C)c3=O)cc12 [Compound 448]	0.0
COc1c(-c2nsc3ccc(-n4c(=O)cc(C(F)(F)F)n(C)c4=O)cc23)ccc(C)c1C [Compound 267]	0.0
Cc1cc(O)c(-c2nsc3ccc(-n4c(=O)cc(C(F)(F)F)n(C)c4=O)cc23)cc1C [Compound 11]	0.0
COC(=O)C(C)Oc1ccc(C)cc1-c1nsc2ccc(-n3c(=O)cc(C(F)(F)F)n(C)c3=O)cc12 (stereo not shown) [Compound 3]	0.0
CCCCC(=O)c1nsc2ccc(-n3c(=O)cc(C(F)(F)F)n(C)c3=O)cc12 [Compound 431]	4.0
COC(=O)COc1ccc(C)cc1-c1nsc2ccc(-n3c(=O)cc(C(F)(F)F)n(C)c3=O)cc12 [Compound 2]	0.0
COC(=O)COc1ccc(C)cc1-c1noc2ccc(-n3c(=O)cc(C(F)(F)F)n(C)c3=O)c(Cl)c12 [Compound 261]	0.0
CC(C)S(=O)(=O)NC(=O)c1nsc2ccc(-n3c(=O)cc(C(F)(F)F)n(C)c3=O)cc12 [Compound 362]	9.0
COC(=O)COc1cc(C)ccc1-c1nsc2ccc(-n3c(=O)cc(C(F)(F)F)n(C)c3=O)cc12 [Compound 8]	7.0
COc1cc2c(cc1-c1nsc3ccc(-n4c(=O)cc(C(F)(F)F)n(C)c4=O)cc13)CCC2 [Compound 380]	8.0
Cn1c(C(F)(F)F)cc(=O)n(-c2ccc3snc(C(=O)C(C)(C)C)c3c2)c1=O [Compound 432]	9.0
COc1cc(C)ccc1-c1nsc2ccc(-n3c(=O)cc(C(F)(F)F)n(C)c3=O)cc12 [Compound 7]	9.0
COc1ccc(OC)c(-c2nsc3ccc(-n4c(=O)cc(C(F)(F)F)n(C)c4=O)cc23)c1 [Compound 333]	8.0
CC(C)Oc1cccc(-c2nsc3ccc(-n4c(=O)cc(C(F)(F)F)n(C)c4=O)cc23)c1 [Compound 328]	6.0
COC(=O)C(C)Oc1cc(C)c(C)cc1-c1nsc2ccc(-n3c(=O)cc(C(F)(F)F)n(C)c3=O)cc12 (stereo not shown) [Compound 13]	4.0
COc1ccc(C)cc1-c1nsc2ccc(-n3c(=O)cc(C(F)(F)F)n(C)c3=O)cc12 [Compound 1]	5.5
Cc1nsc2ccc(-n3c(=O)cc(C(F)(F)F)n(C)c3=O)cc12 [Compound 6]	7.0
CCOc1cccc(-c2nsc3ccc(-n4c(=O)cc(C(F)(F)F)n(C)c4=O)cc23)c1 [Compound 327]	2.0
CCOC(=O)COc1ccc(C)cc1-c1nsc2ccc(-n3c(=O)cc(C(F)(F)F)n(C)c3=O)cc12 [Compound 49]	0.0
Cn1c(C(F)(F)F)cc(=O)n(-c2ccc3snc(-c4ccccc4)c3c2)c1=O [Compound 4]	7.0

* * *

system: ECHORC Watergrass (Calif.); test: Preemergence weed control, flooded paddy (Table III); format: in vivo, Echinochloa oryzoides; conditions: 0.1250 kg/ha
assay.metric: herbicidal effect rating

compound	assay.target	measurement
COC(=O)C(C)Oc1ccc(C)cc1-c1nsc2ccc(-n3c(=O)cc(C(F)(F)F)n(C)c3=O)cc12 (stereo not shown)	ECHORC Watergrass (Calif.)	9.0
Cc1cc(O)c(-c2nsc3ccc(-n4c(=O)cc(C(F)(F)F)n(C)c4=O)cc23)cc1C	ECHORC Watergrass (Calif.)	8.0
COc1cc(C)ccc1-c1nsc2ccc(-n3c(=O)cc(C(F)(F)F)n(C)c3=O)cc12	ECHORC Watergrass (Calif.)	9.0
COC(=O)COc1ccc(C)cc1-c1nsc2ccc(-n3c(=O)cc(C(F)(F)F)n(C)c3=O)cc12	ECHORC Watergrass (Calif.)	9.0

* * *

test system: ORYSAT Rice, Tebonnet; experiment: Tolerance of transplanted rice to post-transplant application (Table III); assay type: in vivo, Oryza sativa; design: scale not given here; conditions: 0.0313 kg/ha, crop tolerance
Response key: true (1) means herbicidal effect rating >= 4; false (0) means herbicidal effect rating < 4.

molecule	discrete.label
COC(=O)C(C)Oc1cc(C)ccc1-c1nsc2ccc(-n3c(=O)cc(C(F)(F)F)n(C)c3=O)cc12 (stereo not shown) [Compound 9]	true (1)
CCc1ccc(-c2nsc3ccc(-n4c(=O)cc(C(F)(F)F)n(C)c4=O)cc23)cc1 [Compound 5]	false (0)
COC(=O)C(C)Oc1ccc(C)cc1-c1nsc2ccc(-n3c(=O)cc(C(F)(F)F)n(C)c3=O)cc12 (stereo not shown) [Compound 3]	false (0)
COC(=O)COc1cc(C)ccc1-c1nsc2ccc(-n3c(=O)cc(C(F)(F)F)n(C)c3=O)cc12 [Compound 8]	true (1)
COc1cc(C)ccc1-c1nsc2ccc(-n3c(=O)cc(C(F)(F)F)n(C)c3=O)cc12 [Compound 7]	true (1)
COc1ccc(C)cc1-c1nsc2ccc(-n3c(=O)cc(C(F)(F)F)n(C)c3=O)cc12 [Compound 1]	true (1)
COC(=O)COc1ccc(C)cc1-c1nsc2ccc(-n3c(=O)cc(C(F)(F)F)n(C)c3=O)cc12 [Compound 2]	false (0)

* * *

tested on: ECHORC Watergrass (Calif.); assay: Postemergence weed control, flooded paddy (Table IV); assay type: in vivo, Echinochloa oryzoides; design: scale not given here; conditions: 0.1250 kg/ha

mol	assay.target	herbicidal effect rating
CC(C)S(=O)(=O)NC(=O)c1nsc2ccc(-n3c(=O)cc(C(F)(F)F)n(C)c3=O)cc12	ECHORC Watergrass (Calif.)	7.0
COc1cc(C)c(I)cc1-c1nsc2ccc(-n3c(=O)cc(C(F)(F)F)n(C)c3=O)cc12	ECHORC Watergrass (Calif.)	6.0
COC(=O)COc1cc(C)c(C)cc1-c1nsc2ccc(-n3c(=O)cc(C(F)(F)F)n(C)c3=O)cc12	ECHORC Watergrass (Calif.)	6.0
COC(=O)COc1cc(C)ccc1-c1nsc2ccc(-n3c(=O)cc(C(F)(F)F)n(C)c3=O)cc12	ECHORC Watergrass (Calif.)	9.0
COc1cc2c(cc1-c1nsc3ccc(-n4c(=O)cc(C(F)(F)F)n(C)c4=O)cc13)CCC2	ECHORC Watergrass (Calif.)	9.0

* * *

tested on: ECHORC Watergrass (Calif.); test: Postemergence weed control, flooded paddy (Table IV); type: in vivo, Echinochloa oryzoides; set-up: scale not given here; settings: 0.1250 kg/ha
herbicidal effect rating values, listed per item
assay.metric: herbicidal effect rating

compound	measurement
COc1ccc(I)cc1-c1nsc2ccc(-n3c(=O)cc(C(F)(F)F)n(C)c3=O)cc12	1.0
Cc1nsc2ccc(-n3c(=O)cc(C(F)(F)F)n(C)c3=O)cc12	9.0
COc1ccc(OC)c(-c2nsc3ccc(-n4c(=O)cc(C(F)(F)F)n(C)c4=O)cc23)c1	9.0
COc1cc(C)ccc1-c1nsc2ccc(-n3c(=O)cc(C(F)(F)F)n(C)c3=O)cc12	9.0
CCCCC(=O)c1nsc2ccc(-n3c(=O)cc(C(F)(F)F)n(C)c3=O)cc12	9.0
CCC(C#N)(CC)c1nsc2ccc(-n3c(=O)cc(C(F)(F)F)n(C)c3=O)cc12	9.0
COC(=O)C(C)Oc1cc(C)c(C)cc1-c1nsc2ccc(-n3c(=O)cc(C(F)(F)F)n(C)c3=O)cc12 (stereo not shown)	6.0
COCc1nsc2cc(F)c(-n3c(=O)cc(C(F)(F)F)n(C)c3=O)cc12	9.0
COC(=O)C(C)Oc1ccc(C)cc1-c1nsc2ccc(-n3c(=O)cc(C(F)(F)F)n(C)c3=O)cc12 (stereo not shown)	0.0
CON(C)C(=O)COc1ccccc1-c1nsc2ccc(-n3c(=O)cc(C(F)(F)F)n(C)c3=O)cc12	9.0
COC(=O)C(C)Oc1cc(C)ccc1-c1nsc2ccc(-n3c(=O)cc(C(F)(F)F)n(C)c3=O)cc12 (stereo not shown)	9.0
COC(=O)COc1ccc(C)cc1-c1nsc2ccc(-n3c(=O)cc(C(F)(F)F)n(C)c3=O)cc12	7.0
CC(C)Oc1cccc(-c2nsc3ccc(-n4c(=O)cc(C(F)(F)F)n(C)c4=O)cc23)c1	9.0
COC(=O)COc1ccc(C)cc1-c1noc2cc(F)c(-n3c(=O)cc(C(F)(F)F)n(C)c3=O)cc12	6.0
Cn1c(C(F)(F)F)cc(=O)n(-c2ccc3snc(-c4ccccc4)c3c2)c1=O	9.0
CCOC(=O)COc1ccc(C)cc1-c1nsc2ccc(-n3c(=O)cc(C(F)(F)F)n(C)c3=O)cc12	9.0
